ASSAY_CONDITIONS: Liquid; pulse heating method
ASSAY_ENDPOINT: Critical temperature (K)

| COMPOUND | UNIT_LABEL | Critical temperature |
| --- | --- | --- |
| COC(=O)CCCCCCC(=O)OC [dimethyl octanedioate] | K | 723 |
| COC(=O)CCCCC(=O)OC [dimethyl 1,6-hexanedioate] | K | 692 |
| COC(=O)CCC(=O)OC [dimethyl 1,4-butanedioate] | K | 662 |
| COC(=O)CC(=O)OC [dimethyl 1,3-propanedioate] | K | 649 |
| COC(=O)CCCCCC(=O)OC [dimethyl 1,7-heptanedioate] | K | 711 |
| COC(=O)CCCC(=O)OC [dimethyl pentanedioate] | K | 682 |
| COC(=O)C(=O)OC [dimethyl ethanedioate] | K | 639 |
| COC(=O)CCCCCCCCC(=O)OC [dimethyl sebacate] | K | 742 |
